Target: human Nav1.1 (Homo sapiens, UniProt P35498)
Construct: host or cells: HEK293
Test: Amplification of Nav1.1-derived voltage-gated sodium current (Nav1.1 current), automated patch clamp (Test 1)
Format: cell-based
Conditions: Concentration for evaluation 1 μM; HEK293 cell line stably expressing human Nav1.1
assay_endpoint: Nav1.1 current amplification rate (%)

Sample records with Nav1.1 current amplification rate (%):
> print(dat)
                                   molecule  numeric.result
1  CC1CC=C(c2ccc(=O)n(CC(=O)Nc3cncc(-c4cnn(C)c4)c3)n2)CC1 (stereo not drawn)              37
2  CC1CC=C(c2ccc(=O)n(CC(=O)N3CCc4c(Cn5ccnc5)cccc43)n2)CC1 (stereo not drawn)             848
3  CC1CC=C(c2ccc(=O)n(CC(=O)N3CCc4cc(-c5cccnc5)ccc43)n2)CC1 (stereo not drawn)              51
4  Cc1cc(NC(=O)Cn2ncc3ncc(N(C)C4CCCC4)nc32)cc2ncnn12              56

a = CC1CC=C(c2ccc(=O)n(CC(=O)N3CCc4c(-c5cc[nH]n5)ccc(F)c43)n2)CC1 (stereo not drawn)
b = CC(C)CN(C)c1cnc2cnn(CC(=O)Nc3ccc4ncnn4c3)c2n1
c = CC1CC=C(c2ccc(=O)n(CC(=O)N3CCc4c(CNC5CCC5)cccc43)n2)CC1 (stereo not drawn)
Sort low-to-high on Nav1.1 current amplification rate (%), please. Write out the labels following the order that was asked for.
b, c, a
(b: 12%, c: 19%, a: 46%)

I = Cc1nc2cc(NC(=O)Cn3ncc4ncc(N(C)C5CCCC5)nc43)cnc2s1
II = CC1CC=C(c2ccc(=O)n(CC(=O)N3CCc4c(CNCC(F)F)cccc43)n2)CC1 (stereo not drawn)
Which is greater in Nav1.1 current amplification rate (%), the first item I or the second item II ? Let me know the label of the one you choose.
II

I = O=C(Cn1ncc2cnc(C3=CCCCC3)nc21)Nc1ccn2ncnc2c1
II = O=C(Cn1ncc2ncc(C3=CCC4(CC3)CC4(F)F)nc21)Nc1ccc2ncnn2c1 (stereo not drawn)
Which item exceeds the other in Nav1.1 current amplification rate (%), I or II ? Refer to your chosen entry by its label in the reply.
II

a = CC1CC=C(c2ccc(=O)n(CC(=O)Nc3ccc4cnnn4c3)n2)CC1 (stereo not drawn)
b = O=C(Cn1ncc2cnc(N3CCC4(CCC4)CC3)nc21)Nc1ccn2ncnc2c1
Decide: a or b , by lowest recorded Nav1.1 current amplification rate (%). Response format: the label of the selected entry.
b
(b: 41%, a: 232%)
